- Study target: human autotaxin (Homo sapiens, UniProt Q13822)
- Construct: Conditioned media is collected from confluent Hep3B cells and concentrated 20-fold; endogenous in cells
- Test name: Human Autotaxin Assay (choline release from LPC)
- Study conditions: ATX in concentrated conditioned media from Hep3B cells, substrate LPC 14:0 100 uM, absorbance at 555 nm

Molecule	Study target	IC50
CCOc1ncc(Cn2cc(/C=C(\C#N)c3ccc(C(=O)O)cc3)c3ccc(Cl)cc32)s1 [Compound 1-17]	human autotaxin (Homo sapiens, UniProt Q13822)	500 to 10000 nM
N#C/C(=C\c1cn(Cc2cc(Cl)cc(Cl)c2)c2cc(Cl)ccc12)c1ccc(C(=O)O)cc1 [Compound 1-19]	human autotaxin (Homo sapiens, UniProt Q13822)	500 to 10000 nM
N#C/C(=C\c1cn(Cc2ccc(F)cc2)c2cc(F)cc(F)c12)c1ccc(C(=O)O)cc1 [Compound 1-11]	human autotaxin (Homo sapiens, UniProt Q13822)	≤ 500 nM
N#C/C(=C\c1cn(Cc2ccc(F)cc2)c2cc(Cl)ccc12)c1ccc(CC(=O)O)cc1 [Compound 2-25]	human autotaxin (Homo sapiens, UniProt Q13822)	≤ 500 nM
N#C/C(=C\c1cn(Cc2ccc(F)cc2)c2cc(Cl)ccc12)c1ccc(C(=O)O)cc1 [Compound 1-4]	human autotaxin (Homo sapiens, UniProt Q13822)	≤ 500 nM

----------
- Study target: human autotaxin (Homo sapiens)
- Construct: Conditioned media is collected from confluent Hep3B cells and concentrated 20-fold; endogenous in cells
- Test name: Human Autotaxin Assay (choline release from LPC)
- Study conditions: ATX in concentrated conditioned media from Hep3B cells, substrate LPC 14:0 100 uM, absorbance at 555 nm
IC50 listing for selected molecules.

Molecule	IC50
N#C/C(=C\c1cn(Cc2ccc(F)cc2)c2cc(F)ccc12)c1ccc(C(=O)O)cc1 [Compound 1-7]	≤ 500 nM
N#C/C(=C\c1cn(Cc2cnc(C(F)(F)F)s2)c2cc(OC(F)(F)F)ccc12)c1ccc(C(=O)O)cc1 [Compound 1-77]	≤ 500 nM
N#C/C(=C\c1cn(Cc2ccc(F)cc2)c2cc(OC(F)(F)F)ccc12)c1ccc(C(=O)O)cc1 [Compound 1-75]	≤ 500 nM
CCOc1ccc2c(/C=C(\C#N)c3ccc(C(=O)O)cc3)cn(Cc3ccc(F)cc3)c2c1 [Compound 1-65]	≤ 500 nM
N#C/C(=C\c1cn(Cc2ccc(F)cc2)c2cc(Cl)ccc12)c1cccc(C(=O)O)c1 [Compound 2-26]	500 to 10000 nM
COc1ccc2c(/C=C(\C#N)c3ccc(C(=O)O)cc3)cn(Cc3ccc(OC)nc3)c2c1 [Compound 1-29]	≤ 500 nM
CCCc1noc(Cn2cc(/C=C(\C#N)c3ccc(C(=O)O)cc3)c3ccc(Cl)cc32)n1 [Compound 1-18]	500 to 10000 nM
N#C/C(=C\c1cn(Cc2ccncc2)c2cc(Cl)ccc12)c1ccc(C(=O)O)cc1 [Compound 1-14]	500 to 10000 nM
N#C/C(=C\c1cn(Cc2ccccc2)c2cc(Cl)ccc12)c1ccc(C(=O)O)cc1 [Compound 1-13]	500 to 10000 nM
N#C/C(=C\c1cn(Cc2ccc(F)cc2)c2cc(C(F)(F)F)ccc12)c1ccc(C(=O)O)cc1 [Compound 1-9]	500 to 10000 nM
N#C/C(=C\c1cn(CCCc2ccc(F)cc2)c2cc(Cl)ccc12)c1ccc(C(=O)O)cc1 [Compound 1-23]	> 10000 nM
N#C/C(=C\c1cn(Cc2ccc(F)cc2)c2c(F)c(Cl)ccc12)c1ccc(C(=O)O)cc1 [Compound 1-49]	500 to 10000 nM
N#C/C(=C\c1cn(Cc2cnc(C(F)(F)F)s2)c2cc(Cl)ccc12)c1ccc(C(=O)O)cc1 [Compound 1-15]	≤ 500 nM
N#C/C(=C\c1cn(Cc2ccc(F)cc2)c2ccc(Cl)cc12)c1ccc(C(=O)O)cc1 [Compound 1-3]	> 10000 nM
COc1ccc(Cn2cc(/C=C(\C#N)c3ccc(C(=O)O)cc3)c3ccc(Cl)cc32)cn1 [Compound 1-26]	≤ 500 nM
N#C/C(=C\c1cn(Cc2cc(C(F)(F)F)cc(C(F)(F)F)c2)c2cc(Cl)ccc12)c1ccc(C(=O)O)cc1 [Compound 1-20]	> 10000 nM
N#C/C(=C\c1cn(CCc2ccc(F)cc2)c2cc(Cl)ccc12)c1ccc(C(=O)O)cc1 [Compound 1-22]	> 10000 nM
N#C/C(=C\c1cn(Cc2ccc(F)cc2C(F)(F)F)c2cc(Cl)ccc12)c1ccc(C(=O)O)cc1 [Compound 1-46]	> 10000 nM
N#C/C(=C\c1cn(Cc2ccc(OCC(F)(F)F)nc2)c2cc(Cl)ccc12)c1ccc(C(=O)O)cc1 [Compound 1-48]	> 10000 nM
N#C/C(=C\c1cn(CCCc2ccccc2)c2cc(Cl)ccc12)c1ccc(C(=O)O)cc1 [Compound 1-24]	500 to 10000 nM
N#C/C(=C\c1cn(Cc2ccc(F)cc2)c2ccccc12)c1ccc(C(=O)O)cc1 [Compound 1-1]	500 to 10000 nM
N#C/C(=C\c1cn(Cc2ccc(Cl)nc2)c2cc(Cl)ccc12)c1ccc(C(=O)O)cc1 [Compound 1-16]	≤ 500 nM

These measurements were taken from patent US9714240B2.
